TEST_DETAILS: Percent change from control value for Vmax at 0.1 uM of the compound.
ENDPOINT: Delta Vmax (%)

I = CCN(CC)CCN(C(=O)c1ccc(NS(C)(=O)=O)cc1)c1ccc(OC)cc1.O=C(O)/C=C/C(=O)O
II = CCN(CC)CC(NC(=O)c1ccc(NS(C)(=O)=O)cc1)c1ccccc1.Cl (configuration not stated)
Out of I and II , name the one with the higher Delta Vmax. Could you answer with the label of the item you picked?
II
(II: 6%, I: 0%)

a = C=C[C@H]1CN2CC[C@H]1C[C@@H]2[C@@H](O)c1ccnc2ccc(OC)cc12 [QUINIDINE]
b = CCN(CC)C(CNC(=O)c1ccc(NS(C)(=O)=O)cc1)c1cccc2ccccc12 (configuration not stated)
c = CCc1ccc(N(CCN(CC)CC)C(=O)c2ccc(NS(C)(=O)=O)cc2)cc1.Cl
d = CCN(CC)CCN(C(=O)c1ccc(NS(C)(=O)=O)cc1)c1cccc2ccccc12.Cl
Task for the reader: rank each entry by its Delta Vmax, from the minimum upward. Submit the labels in the order that the ranking request calls for.
a, b, d, c
(a: 0%, b: 1%, d: 2%, c: 5%)
